Attribute: TGI
Test system: RPMI-8226 leukemia
Experiment: NCI tumour cell line growth inhibition, 48 h

Worked set:
molecule | assayed_system | TGI
CN(C)C(=O)OC(Cn1cncn1)(Cn1cncn1)c1ccc(Cl)cc1Cl | RPMI-8226 leukemia | > 100 µM
CN(Cc1cc(Cl)cc(Cl)c1)CC(C(=O)c1ccccc1)c1ccccc1 (configuration not stated) | RPMI-8226 leukemia | > 100 µM
CC(C)C(N)=O | RPMI-8226 leukemia | > 5000 µM
COc1cccc(NC(=O)c2sc3nc4c(cc3c2N)C(=O)CCC4)c1 | RPMI-8226 leukemia | > 100 µM
COc1ccc(N2C=Nn3c(nc4sc5c(c4c3=O)CCCC5)C2)cc1 | RPMI-8226 leukemia | > 100 µM

For CCCCON1C[C@H](OC(C)=O)C(OC(C)=O)[C@H](OC(C)=O)C1 (some centres not stated) , what is its reported TGI?
> 100 µM

For Nc1nc2c(c(=O)[nH]1)C(c1ccc(Cl)cc1)C=C(c1ccccc1)N2 (configuration not stated) , what is its reported TGI?
39.3 µM

For `CCOC(=O)/C(C#N)=C/c1ccnc2ccccc12` , what is its reported TGI?
92.5 µM

For Cc1ccc(C)c(C2NC(=O)c3ccccc3N2)c1 (configuration not stated) , what is its reported TGI?
16.4 µM

For CC(C)(C)C(=O)OC12/C(=N/O)CCCCCC1c1ccccc12 (configuration not stated) , what is its reported TGI?
30.9 µM

For COc1cc2c(cc1OC)C1(COc3cc(O)c(O)c(O)c3C1=O)C2 (configuration not stated) , what is its reported TGI?
> 50 µM

For COc1nc(N)nc2c1ncn2C1OC(CO)C(O)C1O (configuration not stated) , what is its reported TGI?
> 5000 µM
